system: 648629-189-R-J1-PDC complex spheroids viability; assay: Anticancer human tumor 648629-189-R-J1-PDC patient-derived bladder carcinoma cell line growth inhibition [CLK]; settings: second compound 0.0316 µM; first compound 10 µM; active means viability on the fitted dose curve at most 10% of control; inactive means the rest
Lab note: assign the record to one of true (1) = active, false (0) = inactive

Consider the following illustrative entries.
COMPOUND: O=C(c1cc(Cc2n[nH]c(=O)c3ccccc23)ccc1F)N1CCN(C(=O)C2CC2)CC1 + CN1CCN(c2cc(C(=O)Nc3cc4cc(-c5cnn(C)c5)ccc4cn3)ccn2)CC1
ANSWER_LABEL: false (0)
//
COMPOUND: COC1C=CCC(C)C(C)S(=O)(=O)NC(=O)c2ccc3c(c2)N(CC2CCC21)CC1(CCCc2cc(Cl)ccc21)CO3 (centres undefined) + CNC(=O)c1ccc(Nc2nc(OC3CCCC3)c3c(-c4ccc5nc(C)oc5c4)c[nH]c3n2)c(OC)c1
ANSWER_LABEL: true (1)
//
COMPOUND: CC(=O)O[C@H]1C(=O)[C@@]2(C)[C@H]([C@H](OC(=O)c3ccccc3)[C@]3(O)C[C@H](OC(=O)[C@H](O)[C@@H](NC(=O)c4ccccc4)c4ccccc4)C(C)=C1C3(C)C)[C@]1(OC(C)=O)CO[C@@H]1C[C@@H]2O + CNC(=O)c1ccc(Nc2nc(OC3CCCC3)c3c(-c4ccc5nc(C)oc5c4)c[nH]c3n2)c(OC)c1
ANSWER_LABEL: false (0)

In the following, a different compound is considered.
INPUT: Recorded call for CC1(C)CCC(CN2CCN(c3ccc(C(=O)NS(=O)(=O)c4ccc(NCC5CCOCC5)c([N+](=O)[O-])c4)c(Oc4cnc5[nH]ccc5c4)c3)CC2)=C(c2ccc(Cl)cc2)C1 + CN1CCN(c2cc(C(=O)Nc3cc4cc(-c5cnn(C)c5)ccc4cn3)ccn2)CC1 ?
OUTPUT: false (0)

###

tested on: 648629-189-R-J1-PDC complex spheroids viability; assay: Anticancer human tumor 648629-189-R-J1-PDC cell line growth inhibition [CLK]; conditions: second compound 3.16 µM; first compound 0.0316 µM; stronger effect = lower value;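 further: drug exposure lasted seven days before viability readout; 100% = DMSO vehicle control wells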
The label true is reserved for viability, T/C strictly under 20%; false covers values equal to or above it.

COMPOUND: COc1ccc([C@@H](O)c2cc(-c3ncnc4cc(N5CCOCC5)ccc34)c(F)cc2Cl)nn1 + CNC(=O)c1ccc(Nc2nc(OC3CCCC3)c3c(-c4ccc5nc(C)oc5c4)c[nH]c3n2)c(OC)c1
ANSWER_LABEL: false

INPUT: Find out if reported viability, T/C for CC1COCCN1c1cc(C2(S(C)(=N)=O)CC2)nc(-c2ccnc3[nH]ccc23)n1 (stereo not given) + CN1CCN(c2cc(C(=O)Nc3cc4cc(-c5cnn(C)c5)ccc4cn3)ccn2)CC1 is less than 20%
OUTPUT: true

INPUT: Record CC(=O)O[C@H]1C(=O)[C@@]2(C)[C@H]([C@H](OC(=O)c3ccccc3)[C@]3(O)C[C@H](OC(=O)[C@H](O)[C@@H](NC(=O)c4ccccc4)c4ccccc4)C(C)=C1C3(C)C)[C@]1(OC(C)=O)CO[C@@H]1C[C@@H]2O + CNC(=O)c1ccc(Nc2nc(OC3CCCC3)c3c(-c4ccc5nc(C)oc5c4)c[nH]c3n2)c(OC)c1 : is its viability, T/C strictly below 20%?
OUTPUT: false

INPUT: Does the reported viability, T/C of the following compound sit strictly below 20%? CCCS(=O)(=O)Nc1ccc(F)c(C(=O)c2c[nH]c3ncc(-c4ccc(Cl)cc4)cc23)c1F + CN1CCN(c2cc(C(=O)Nc3cc4cc(-c5cnn(C)c5)ccc4cn3)ccn2)CC1
OUTPUT: true

INPUT: API: query returns whether the compound falls strictly under 20% in viability, T/C. Query: O=c1[nH]cc(F)c(=O)[nH]1 + CN1CCN(c2cc(C(=O)Nc3cc4cc(-c5cnn(C)c5)ccc4cn3)ccn2)CC1
OUTPUT: true

INPUT: Confirm or reject: viability, T/C of COC1C=CCC(C)C(C)S(=O)(=O)NC(=O)c2ccc3c(c2)N(CC2CCC21)CC1(CCCc2cc(Cl)ccc21)CO3 (stereo not given) + CNC(=O)c1ccc(Nc2nc(OC3CCCC3)c3c(-c4ccc5nc(C)oc5c4)c[nH]c3n2)c(OC)c1 lies strictly below 20%
OUTPUT: false

INPUT: Lab log: compare recorded viability, T/C with 20%; is it strictly lower for CCc1c2c(nc3ccc(O)cc13)-c1cc3c(c(=O)n1C2)COC(=O)[C@]3(O)CC + CN1CCN(c2cc(C(=O)Nc3cc4cc(-c5cnn(C)c5)ccc4cn3)ccn2)CC1 ?
OUTPUT: true
